# experimental.system: NPH-II (vaccinia virus, UniProt P12927 1-676)
# test.name: smFRET

{"columns": ["binder", "Kd"],
 "data": [
  ["smFRET bipartite RNA with two extra 3' U on complementary strand (dsRNA, 3' biotin on strand 2) RNA 1: AGCACCGUAAAGACGCAGCCAGCAUCAAUGACAUCAGCAUCAA RNA 2: GCUGCGUCUUUACGGUGCUUU", "< 10 pM"]
]}

The measured values listed here are drawn from paper PMC3267895.
